- Test system: SNB-75 CNS
- testSummary: NCI-60 one-dose screen, 48 h (100 = growth as untreated, 0 = no growth, -100 = all killed)
- conditionContext: 10 µM unless noted
Compounds without any hit were thinned out: in the full panel of roughly 83,000, 20% have a hit. The source made the active and inactive calls. Rule for the calls: active = growth percent below 10; inactive = the rest.
Some compounds, each annotated with its measured growth.

Previously resolved entries follow.
compound	growth
Cc1cc(Cl)nc(Nc2ccccc2)n1	96.2% (inactive)
Cc1cccc(Cl)c1N	100% (inactive)
CCCCNC(=O)c1ccccc1C	99% (inactive)
CCCCC/C(C)=N\NC(N)=S	86.6% (inactive)
CCOC(=O)c1ccc(C(=N)N)cc1	100% (inactive)
CCCCCc1cc[n+](CC(=O)c2ccccc2)cc1	92.6% (inactive)

Pending compound:
Suppose we examine the compound "O=C(O)C#Cc1ccc(Cl)cc1" ; what growth value has been reported?
85.6% (inactive)

* * *

Some molecules, each annotated with its measured growth.
- Test system: OVCAR-8 ovarian
- testSummary: NCI-60 one-dose screen, 48 h (100 = growth as untreated, 0 = no growth, -100 = all killed)
- conditionContext: 10 µM unless noted
This is part of a sample that, as a whole, favours compounds with a hit. Of some 83,000 tested, about 20% had one in any assay. Calls of active or inactive are those of the source. How the source made its calls: active means growth percent below 10; inactive means the rest.

molecule	growth
COCCCNC1=C(C#N)C(=O)NC(c2cccs2)S1 (stereo not drawn)	113% (inactive)
O=C1C=CC(n2cc(F)c(=O)[nH]c2=O)O1 (stereo not drawn)	62.3% (inactive)
COc1cc(Cl)ccc1C	87.5% (inactive)
CC(C)(C)OC(=O)NCCc1ccc(N)cc1	104% (inactive)

Could you share what growth was measured for "COC(=O)c1cc(C(=O)OC)cc([N+](=O)[O-])c1" , tested on OVCAR-8 ovarian?
93.5% (inactive)

Could you share what growth was measured for O=C(c1ccc(Cl)cc1)C1C(c2ccccc2)C1[N+](=O)[O-] (stereo not drawn) , tested on OVCAR-8 ovarian?
99% (inactive)

Could you share what growth was measured for "CCN(CC)C(=S)SCCO" , tested on OVCAR-8 ovarian?
103% (inactive)

Could you share what growth was measured for "NNc1ncnc2cccc(Cl)c12" , tested on OVCAR-8 ovarian?
95.2% (inactive)

Could you share what growth was measured for "O=COCCCc1ccccc1" , tested on OVCAR-8 ovarian?
99.2% (inactive)

Could you share what growth was measured for "Cc1cc(=NO)cc(C)n1O" , tested on OVCAR-8 ovarian?
111% (inactive)

* * *

Some molecules, each annotated with its measured growth.
- Tested on: K-562 leukemia
- testSummary: NCI-60 one-dose screen, 48 h (100 = growth as untreated, 0 = no growth, -100 = all killed)
- conditionContext: 10 µM unless noted
The panel holds about 83,000 compounds, 20% with a hit somewhere; the sample as a whole holds those more often.
Give your result in % as a bare value.

COc1ccc(CCNC(=S)NN)cc1OC 101
CCC/C(=N/NC(N)=O)c1ccco1 104
O=C(O)c1ccc2c3ccc(C(=O)O)c4c(C(=O)O)ccc(c5ccc(C(=O)O)c1c25)c43 113
O=C1Cc2ccccc2C(=O)N1 46.9

Pending molecule:
Could you share what growth was measured for "CC(=O)Nc1ccc2oc(=O)ccc2c1" , tested on K-562 leukemia?
64.9

* * *

- Tested on: PC-3 prostate
- testSummary: NCI-60 one-dose screen, 48 h (100 = growth as untreated, 0 = no growth, -100 = all killed)
- conditionContext: 10 µM unless noted
This is part of a sample that, as a whole, favours compounds with a hit. Of some 83,000 tested, about 20% had one in any assay. Calls of active or inactive are those of the source. How the source made its calls: active means growth percent below 10; inactive means the rest.
measuredAttribute: growth

compound	testedOn	growth
CCN(CC)CCO/N=C1\CC(c2ccc(OC)c(OC)c2)Oc2ccccc21 (stereo not drawn)	PC-3 prostate	83% (inactive)
O=C(Nc1ccccc1)OCC(CN1CCCCC1)OC(=O)Nc1ccccc1 (stereo not drawn)	PC-3 prostate	75.5% (inactive)
Nc1c(Cl)cc2c(c1Br)C(=O)c1ccccc1C2=O	PC-3 prostate	97.7% (inactive)
O=C(N=C1C(=O)C2(CCCCC2)C2(N=C(c3ccccc3)OC2=O)C12CCCCC2)c1ccccc1 (stereo not drawn)	PC-3 prostate	42.8% (inactive)
CCOC(=N)c1ccc(C(=N)OCC)cc1	PC-3 prostate	103% (inactive)

Suppose we examine the compound "O=c1[nH]c(=S)[nH]n1C(=S)n1[nH]c(=S)[nH]c1=O" ; what growth value has been reported?
83.3% (inactive)

Suppose we examine the compound CC(O)CCNC(c1ccccc1)C(O)c1ccccc1 (stereo not drawn) ; what growth value has been reported?
94.8% (inactive)

* * *

- Tested on: T-47D breast
- testSummary: NCI-60 one-dose screen, 48 h
- conditionContext: 10 µM unless noted
Compounds without any hit were thinned out: in the full panel of roughly 83,000, 20% have a hit. The source made the active and inactive calls. The calls were made as follows: active = growth percent below 10; inactive = the rest.
Mark one answer only. Choices: active, inactive

compound	cat
COCCCNC1=C(C#N)C(=O)NC(c2cccs2)S1 (centres undefined)	inactive
COc1ccc(-n2[nH]c3c(cnc4ccccc43)c2=O)cc1	inactive
CN1C2C=CC(=O)C1C1C(=O)N(c3ccccc3)C(=O)C12 (centres undefined)	inactive
COc1ccc(CCN=Cc2ccc(Cl)cc2)cc1OC	inactive
O=[N+]([O-])c1ccc(N/N=C/C2CCCCCC2)c([N+](=O)[O-])c1	inactive
ON=C(C1CCCCC1)C1CCCCC1	inactive

# input for lookup
Field: outcome | Entry: "CC(C)(C)OC(=O)c1ccc(NCc2cc(O)ccc2O)cc1"
active

* * *

- Test system: RPMI-8226 leukemia
- testSummary: NCI-60 one-dose screen, 48 h (100 = growth as untreated, 0 = no growth, -100 = all killed)
- conditionContext: 10 µM unless noted
The panel holds about 83,000 compounds, 20% with a hit somewhere; the sample as a whole holds those more often.
Some compounds, each annotated with its measured growth.
Give your result in % as a bare value.

Previously resolved entries follow.
compound	growth (%)
COc1ccc(CCNC(=S)NN)cc1OC	99
CC(C)(C)C1CCC(=NO)CC1 (stereo not given)	92.5
O=C(O)Cc1cc(=O)[nH]n(-c2ccccc2)c1=O	117
CN(C)C(=N)N=C(N)N	92.2

Suppose we examine the compound "CCN(CC)CCNC(=O)c1ccc(NCN2C(=O)NC(c3ccccc3)(c3ccccc3)C2=O)cc1" ; what growth value has been reported?
104

Suppose we examine the compound "COC(=O)c1nc(=S)[nH]c(C(=O)OC)c1C(=O)c1ccccc1" ; what growth value has been reported?
107

Suppose we examine the compound "CCOCCC(=O)O" ; what growth value has been reported?
107

Suppose we examine the compound O=C1C2=C(Nc3cc(Cl)ccc3N2)OC1c1c[nH]c2ccc(COc3ccccc3)cc12 (stereo not given) ; what growth value has been reported?
59.3

Suppose we examine the compound "Nc1nc(-c2ccccn2)cc(-c2cc(-c3ccccn3)nc(N)n2)n1" ; what growth value has been reported?
111

Suppose we examine the compound OC1CCCN(Cc2ccccc2)C1 (stereo not given) ; what growth value has been reported?
90.5

* * *

- Test system: SK-MEL-28 melanoma
- testSummary: NCI-60 one-dose screen, 48 h (100 = growth as untreated, 0 = no growth, -100 = all killed)
- conditionContext: 10 µM unless noted
The panel holds about 83,000 compounds, 20% with a hit somewhere; the sample as a whole holds those more often.
Some compounds, each annotated with its measured growth.
Give your result in % as a bare value.

Previously resolved entries follow.
compound	testedOn	measuredAttribute	assayValue
CCOC(=O)c1ccc(N2C(=O)C(Cl)(c3ccccc3)C2c2ccco2)cc1 (stereo not drawn)	SK-MEL-28 melanoma	growth	88.3
CCn1c2ccc(N(C)C)cc2c2cc(N(C)C)ccc21	SK-MEL-28 melanoma	growth	98.9
COC(=O)C(Cc1cn(C(C)=O)c2ccccc12)P(=O)(OC)OC (stereo not drawn)	SK-MEL-28 melanoma	growth	114

Suppose we examine the compound "CCOC(=O)c1ccc(C(=N)N)cc1" ; what growth value has been reported?
120

Suppose we examine the compound Cc1ccc(NC(=S)N/C=C(\c2ccccc2)S(=O)Cc2ccccc2)c(C)c1 (stereo not drawn) ; what growth value has been reported?
112

Suppose we examine the compound "CC(C)(C)OC(=O)NCCc1ccc(N)cc1" ; what growth value has been reported?
112

Suppose we examine the compound "COc1ccc(CCN=Cc2ccc(Cl)cc2)cc1OC" ; what growth value has been reported?
121

* * *

- Test system: SF-539 CNS
- testSummary: NCI-60 one-dose screen, 48 h (100 = growth as untreated, 0 = no growth, -100 = all killed)
- conditionContext: 10 µM unless noted
Compounds without any hit were thinned out: in the full panel of roughly 83,000, 20% have a hit.
measuredAttribute: growth (%)
Give your result in % as a bare value.

molecule	growth, %
CN(C)C(=S)N(C)C	99.2
CC(=O)Nc1ccc2oc(=O)ccc2c1	99.1
O=S(=O)(O)c1ccc2cc(O)ccc2c1	102
CCOC(=O)c1ccc(N2C(=O)C(Cl)(c3ccccc3)C2c2ccco2)cc1 (centres undefined)	96.2
OCCS	100

Suppose we examine the molecule "CCn1c2ccc(N(C)C)cc2c2cc(N(C)C)ccc21" ; what growth value has been reported?
100

Suppose we examine the molecule "COc1ccc(/C=N/Nc2nc3ccccc3s2)cc1" ; what growth value has been reported?
94
